measured target: ASIC1 (hASIC1; ASIC1a as primary isoform in tsA-201 cells) (Homo sapiens)
Sequence (P78348 whole entry, canonical isoform): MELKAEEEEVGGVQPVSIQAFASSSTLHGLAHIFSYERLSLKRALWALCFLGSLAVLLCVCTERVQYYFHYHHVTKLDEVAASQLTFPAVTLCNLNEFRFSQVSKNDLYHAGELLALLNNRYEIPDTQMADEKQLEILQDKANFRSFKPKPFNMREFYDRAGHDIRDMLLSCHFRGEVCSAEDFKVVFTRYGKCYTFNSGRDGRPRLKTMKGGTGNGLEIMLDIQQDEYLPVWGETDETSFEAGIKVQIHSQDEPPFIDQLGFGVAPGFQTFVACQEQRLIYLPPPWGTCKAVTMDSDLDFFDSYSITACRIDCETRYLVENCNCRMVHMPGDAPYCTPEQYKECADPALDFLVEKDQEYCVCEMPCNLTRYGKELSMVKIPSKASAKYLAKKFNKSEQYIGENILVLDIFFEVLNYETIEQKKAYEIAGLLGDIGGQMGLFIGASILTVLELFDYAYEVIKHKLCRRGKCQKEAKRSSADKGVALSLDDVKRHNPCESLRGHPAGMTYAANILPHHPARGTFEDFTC
assay text: cell-based
test settings: tsA201, read-out: % inhibition @ 30 µM
inhibition at 30 µM class ranges: LOW = under 40%, MEDIUM = from 40% up to 60%, HIGH = 60% and over

[
  {
    "compound": "N=C(N)NC(=O)c1nc(-c2cc3ccccc3s2)c(N2CCCCCC2)nc1N [compound 19, 19]",
    "discrete label": "HIGH"
  },
  {
    "compound": "N=C(N)NC(=O)c1nc(-c2cc3ccccc3s2)c(N)nc1N [compound 18, 18]",
    "discrete label": "MEDIUM"
  },
  {
    "compound": "Cc1ccc2oc(-c3nc(C(=O)NC(=N)N)c(N)nc3N)cc2c1 [compound 20, 20]",
    "discrete label": "HIGH"
  },
  {
    "compound": "N=C(N)NC(=O)c1nc(-c2cc3ncccc3o2)c(N)nc1N [compound 37, 37]",
    "discrete label": "LOW"
  },
  {
    "compound": "N=C(N)NC(=O)c1nc(-c2ccc3c(c2)CCO3)c(N2CCCCCC2)nc1N [compound 42, 42]",
    "discrete label": "MEDIUM"
  },
  {
    "compound": "N=C(N)NC(=O)c1nc(-c2ccc3occc3c2)c(N2CCCCCC2)nc1N [compound 44, 44]",
    "discrete label": "LOW"
  },
  {
    "compound": "N=C(N)NC(=O)c1nc(-c2cncnc2)c(N2CCCCCC2)nc1N [compound 45, 45]",
    "discrete label": "LOW"
  },
  {
    "compound": "N#Cc1ccc2oc(-c3nc(C(=O)NC(=N)N)c(N)nc3N3CCCCCC3)cc2c1 [compound 32, 32]",
    "discrete label": "HIGH"
  },
  {
    "compound": "N=C(N)NC(=O)c1nc(-c2cc3cnccc3o2)c(N)nc1N [compound 39, 39]",
    "discrete label": "LOW"
  },
  {
    "compound": "N=C(N)NC(=O)c1nc(-c2ccc(C(F)(F)F)cc2)c(N)nc1N [compound 48, 48]",
    "discrete label": "MEDIUM"
  },
  {
    "compound": "N=C(N)NC(=O)c1nc(-c2cc3ncccc3o2)c(N2CCCCCC2)nc1N [compound 38, 38]",
    "discrete label": "LOW"
  },
  {
    "compound": "Cn1cc(-c2nc(C(=O)NC(=N)N)c(N)nc2N2CCCCCC2)cn1 [compound 50, 50]",
    "discrete label": "MEDIUM"
  },
  {
    "compound": "N=C(N)NC(=O)c1nc(Cl)c(N2CCCCCC2)nc1N [compound 13, HMA]",
    "discrete label": "HIGH"
  },
  {
    "compound": "N=C(N)NC(=O)c1nc(-c2cc3cc(F)cc(F)c3o2)c(N2CCCCCC2)nc1N [compound 36, 36]",
    "discrete label": "HIGH"
  },
  {
    "compound": "COc1ccc2cc(-c3nc(C(=O)NC(=N)N)c(N)nc3N)oc2c1 [compound 33, 33]",
    "discrete label": "HIGH"
  }
]

* * *

Overview of recorded inhibition at 30 µM for various molecules
measured target: ASIC1 (hASIC1; ASIC1a as primary isoform in tsA-201 cells) (Homo sapiens)
assay text: cell-based
test settings: tsA201, read-out: % inhibition @ 30 µM
assay endpoint: inhibition at 30 µM (%)

[
  {
    "molecule": "N=C(N)NC(=O)c1nc(-c2ccc(C(F)(F)F)cc2)c(N2CCCCCC2)nc1N",
    "assay endpoint": "inhibition at 30 µM",
    "output unit": "%",
    "value observed": 67
  },
  {
    "molecule": "N=C(N)NC(=O)c1nc(Cl)c(N)nc1N [compound 11, amiloride]",
    "assay endpoint": "inhibition at 30 µM",
    "output unit": "%",
    "value observed": 88
  },
  {
    "molecule": "COc1ccc2oc(-c3nc(C(=O)NC(=N)N)c(N)nc3N3CCCCCC3)cc2c1",
    "assay endpoint": "inhibition at 30 µM",
    "output unit": "%",
    "value observed": 35
  },
  {
    "molecule": "N=C(N)NC(=O)c1nc(-c2ccc3c(c2)CCO3)c(N)nc1N",
    "assay endpoint": "inhibition at 30 µM",
    "output unit": "%",
    "value observed": 22
  }
]
